Readings of Maximum mean fluorescence intensity for the listed binders
# Target under test: T1, monkey CD19 on HEK293T-monkey CD19 cells (monkey)
# T1 construct: whole, on cells
# Protocol: FACS on HEK293T-monkey CD19 cells
# Protocol: After the digestion was terminated, the cells were washed 2 times with a PBS buffer; and for suspension cell Raji, the supernatant of the medium was discarded by directly centrifugation, and the cell pellet was washed 2 times with PBS. […] Data analysis was performed by software (FlowJo) to obtain the mean fluorescence intensity (MFI) of the cells. […]
Simply state the number, no unit and no words.

Request: Find the recorded Maximum mean fluorescence intensity belonging to F3.81.2 (antibody, human IgG1, V domains shown, human-murine chimeric antibody, human IgG1) VH: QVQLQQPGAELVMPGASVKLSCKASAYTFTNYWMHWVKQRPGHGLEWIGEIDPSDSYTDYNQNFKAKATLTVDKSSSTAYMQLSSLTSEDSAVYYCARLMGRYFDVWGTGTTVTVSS VL: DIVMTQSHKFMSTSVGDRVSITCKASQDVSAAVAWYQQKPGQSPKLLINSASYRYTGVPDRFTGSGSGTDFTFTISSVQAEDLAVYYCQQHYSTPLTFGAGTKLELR and report it.
Result: 153000

Request: Would you kindly share the measured Maximum mean fluorescence intensity for F5.3.6 (antibody, human IgG1, V domains shown, human-murine chimeric antibody, human IgG1) VH: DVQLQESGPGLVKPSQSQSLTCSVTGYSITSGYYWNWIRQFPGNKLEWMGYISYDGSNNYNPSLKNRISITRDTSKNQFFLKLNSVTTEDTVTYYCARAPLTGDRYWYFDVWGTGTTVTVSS VL: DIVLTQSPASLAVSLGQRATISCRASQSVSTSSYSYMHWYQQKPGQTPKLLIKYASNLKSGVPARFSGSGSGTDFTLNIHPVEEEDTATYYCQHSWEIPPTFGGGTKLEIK ?
Result: 26100

Request: For the binder F4.35.5 (antibody, human IgG1, V domains shown, human-murine chimeric antibody, human IgG1) VH: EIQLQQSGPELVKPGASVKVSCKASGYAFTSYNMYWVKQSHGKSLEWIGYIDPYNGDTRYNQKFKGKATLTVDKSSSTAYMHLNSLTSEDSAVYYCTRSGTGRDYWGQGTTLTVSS VL: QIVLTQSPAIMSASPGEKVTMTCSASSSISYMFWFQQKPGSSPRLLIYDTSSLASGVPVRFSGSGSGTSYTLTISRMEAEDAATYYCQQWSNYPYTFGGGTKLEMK , what Maximum mean fluorescence intensity is on record?
Result: 70

Request: Maximum mean fluorescence intensity for F6.12.12 (antibody, human IgG1, V domains shown, human-murine chimeric antibody, human IgG1) VH: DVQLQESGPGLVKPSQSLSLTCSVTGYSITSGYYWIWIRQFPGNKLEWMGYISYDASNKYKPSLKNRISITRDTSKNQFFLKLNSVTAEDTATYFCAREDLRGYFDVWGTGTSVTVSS VL: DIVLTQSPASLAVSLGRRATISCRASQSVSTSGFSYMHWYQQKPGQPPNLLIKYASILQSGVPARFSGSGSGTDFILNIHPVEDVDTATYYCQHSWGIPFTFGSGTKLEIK ?
Result: 99100

Request: Maximum mean fluorescence intensity for F5.10.6 (antibody, human IgG1, V domains shown, human-murine chimeric antibody, human IgG1) VH: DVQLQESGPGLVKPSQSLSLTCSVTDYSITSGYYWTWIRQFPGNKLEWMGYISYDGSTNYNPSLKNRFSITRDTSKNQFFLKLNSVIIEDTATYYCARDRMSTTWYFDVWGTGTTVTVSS VL: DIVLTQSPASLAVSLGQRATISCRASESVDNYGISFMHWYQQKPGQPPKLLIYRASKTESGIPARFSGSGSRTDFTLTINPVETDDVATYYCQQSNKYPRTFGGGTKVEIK ?
Result: 99900

Request: Returns the measured Maximum mean fluorescence intensity for the input binder. Input: F4.145.9 (antibody, human IgG1, V domains shown, human-murine chimeric antibody, human IgG1) VH: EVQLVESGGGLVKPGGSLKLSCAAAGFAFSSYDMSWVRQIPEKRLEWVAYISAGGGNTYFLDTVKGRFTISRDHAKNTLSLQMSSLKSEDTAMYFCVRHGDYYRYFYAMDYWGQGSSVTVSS VL: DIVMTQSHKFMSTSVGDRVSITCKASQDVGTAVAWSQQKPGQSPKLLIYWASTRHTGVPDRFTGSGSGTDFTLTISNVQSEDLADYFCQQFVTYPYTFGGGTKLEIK
Result: 108

Request: Which Maximum mean fluorescence intensity value belongs to F5.2.9 (antibody, human IgG1, V domains shown, human-murine chimeric antibody, human IgG1) VH: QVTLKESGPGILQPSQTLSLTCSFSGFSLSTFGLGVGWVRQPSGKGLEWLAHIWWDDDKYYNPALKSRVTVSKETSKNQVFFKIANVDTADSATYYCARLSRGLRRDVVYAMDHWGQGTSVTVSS VL: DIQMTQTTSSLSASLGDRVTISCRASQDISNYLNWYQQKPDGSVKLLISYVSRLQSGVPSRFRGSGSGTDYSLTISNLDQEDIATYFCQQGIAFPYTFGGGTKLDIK ?
Result: 81500

Request: Request the reported Maximum mean fluorescence intensity associated with F4.180.1 (antibody, human IgG1, V domains shown, human-murine chimeric antibody, human IgG1) VH: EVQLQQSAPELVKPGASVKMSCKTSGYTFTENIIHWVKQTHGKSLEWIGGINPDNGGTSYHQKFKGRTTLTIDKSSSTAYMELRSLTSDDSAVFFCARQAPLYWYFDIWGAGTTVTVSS VL: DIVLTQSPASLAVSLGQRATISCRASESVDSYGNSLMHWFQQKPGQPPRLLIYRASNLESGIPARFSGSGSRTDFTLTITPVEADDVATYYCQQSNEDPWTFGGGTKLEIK
Result: 94

Request: Consider the binder shown here: F4.96.6 (antibody, human IgG1, V domains shown, human-murine chimeric antibody, human IgG1) VH: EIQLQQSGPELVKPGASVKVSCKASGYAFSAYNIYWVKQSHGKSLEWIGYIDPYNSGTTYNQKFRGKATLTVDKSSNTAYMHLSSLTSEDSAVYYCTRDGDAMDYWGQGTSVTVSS VL: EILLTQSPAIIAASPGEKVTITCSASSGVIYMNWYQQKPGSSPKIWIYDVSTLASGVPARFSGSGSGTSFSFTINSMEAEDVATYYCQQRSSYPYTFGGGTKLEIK What is its recorded Maximum mean fluorescence intensity?
Result: 73

Request: Recorded Maximum mean fluorescence intensity for F5.8.6 (antibody, human IgG1, V domains shown, human-murine chimeric antibody, human IgG1) VH: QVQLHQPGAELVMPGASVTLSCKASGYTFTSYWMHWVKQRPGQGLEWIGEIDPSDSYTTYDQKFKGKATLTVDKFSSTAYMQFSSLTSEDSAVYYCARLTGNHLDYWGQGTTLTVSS VL: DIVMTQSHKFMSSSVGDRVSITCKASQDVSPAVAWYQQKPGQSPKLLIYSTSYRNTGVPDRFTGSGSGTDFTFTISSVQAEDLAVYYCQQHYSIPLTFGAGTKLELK , please?
Result: 43800
